All values here come from patent US20200157194A1.

Target: T1, human GREM1 (hGREM1-His; SEQ ID NO: 595) (human, UniProt O60565 25-184)
T1 construct: also called biotin-hGREM1-His; recombinant human GREM1 protein
T1 sequence: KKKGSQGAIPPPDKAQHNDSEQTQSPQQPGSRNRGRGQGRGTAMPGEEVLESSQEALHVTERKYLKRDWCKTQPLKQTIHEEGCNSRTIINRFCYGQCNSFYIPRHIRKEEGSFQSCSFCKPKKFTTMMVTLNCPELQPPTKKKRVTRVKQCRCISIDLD
Test: SPR, Biacore T200, 25 C, mAb captured, hGREM1-His injected;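 further: Heparin-supplemented HBS-EP+ used as running buffer, association and dissociation phases followed, Kd computed as koff divided by kon and half-life derived from koff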
quantity measured: t1/2 (min)
Please state the figure in min; there is no need to write the unit.

q: Would you kindly share the measured t1/2 for H4H6252P (antibody, human IgG4, V domains shown, H4H prefix = human IgG4 Fc; also called H4H6252S) VH: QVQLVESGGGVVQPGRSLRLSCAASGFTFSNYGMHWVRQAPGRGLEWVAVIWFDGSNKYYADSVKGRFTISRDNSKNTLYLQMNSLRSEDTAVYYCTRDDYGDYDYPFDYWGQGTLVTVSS VL: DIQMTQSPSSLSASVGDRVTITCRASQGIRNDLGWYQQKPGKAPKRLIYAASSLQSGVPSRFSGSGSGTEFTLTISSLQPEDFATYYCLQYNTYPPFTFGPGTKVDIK ?
a: 152

q: Would you kindly share the measured t1/2 for H2bM2783N (antibody, mouse IgG2, V domains shown, H2M prefix = mouse IgG2 Fc (here H2bM); also called H2M2783N) VH: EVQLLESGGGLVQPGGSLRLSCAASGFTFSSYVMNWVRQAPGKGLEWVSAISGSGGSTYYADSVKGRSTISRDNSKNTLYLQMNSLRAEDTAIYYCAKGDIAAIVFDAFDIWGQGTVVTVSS VL: DIQMTQSPSSLSASVGDRVTITCQASQDISSCLNWYQHKPGKAPKLLIYDASYLETGVPSRFSGSGSGTDFTFTISSLQPEDIATYYCQQYDNLPYTFGQGTKLEIK ?
a: 7.7

q: Would you kindly share the measured t1/2 for H3M2788N (antibody, V domains shown, H3M prefix marks the Fc (chimeric, mouse constant domains)) VH: QVQLVESGGGVVQPGRSLRLSCAASGFTFSSHGMHWVRQAPGKGLEWVAVIWYDGSNKYHADSVKGRFTIYRDNSKNTLDLQMNSLRVEDTAMYYCAREDSNNEDLDYWGQGTLVTVSS VL: DIQMTQSPSSLSASVGDRVTITCRASQGIRNDLGWFQQKPGKAPKRLIYVASNLQSGVPSRFSGSGSGTEFTLTISSLQPEDFATYYCLQHSNYPPWTFGQGTKVEIK ?
a: 33

q: Would you kindly share the measured t1/2 for H4H6240P (antibody, human IgG4, V domains shown, H4H prefix = human IgG4 Fc) VH: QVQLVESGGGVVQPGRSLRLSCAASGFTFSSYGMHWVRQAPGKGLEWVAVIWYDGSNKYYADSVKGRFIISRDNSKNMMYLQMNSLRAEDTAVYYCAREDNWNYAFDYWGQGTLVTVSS VL: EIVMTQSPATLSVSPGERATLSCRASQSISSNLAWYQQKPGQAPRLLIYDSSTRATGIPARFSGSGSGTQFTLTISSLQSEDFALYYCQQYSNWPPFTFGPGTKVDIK ?
a: 36

q: Would you kindly share the measured t1/2 for H2bM2890N (antibody, mouse IgG2, V domains shown, H2M prefix = mouse IgG2 Fc (here H2bM); also called H2M2890N) VH: QVQLVESGGGVVQPGRSLRLTCAASGFTFSSFGMHWVRQAPGKGLEWVAIIWYDGSNKYYADSVKGRFTISRDNSKNTLYLQMNSLRAEDTAVYYCAREDNWTRDYFDYWGQGTLVTVSS VL: EIVLTQSPATLSLSPGERATLSCRASQSVSNFLAWYQQKPGQAPRLLIYDASNRATGIPARFSGSGSGTDFTLTISSLEPEDFAVYYCQQRSNWPPLPFGGGTKVEIK ?
a: 11.6
